target: Gal(b1-3)Gal(b1-4)GlcNAc; assay: glycan array binding signal (z-score within array); higher = stronger binding; conditions: glycan notation: IUPAC condensed, linker removed
The entries come from a sample that favours the strongest signals as a whole.
Task for the reader: assign each of the following binders its reported glycan array binding signal (z-score).
Returns: the value as a bare number; no unit string appended.

Short answer for Pwp1 (Candida glabrata) (protein) MGSSHHHHHHSSGLVPRGSHMASANPISITNVCQFPDNWARTAGFQATTVRLGLTIASNTYKELLNYPGLFNFATQKATVTQPNFSISGFPFFTGLYGLTVWPINLLVELQGYFVPPESGNYTFTLQGSDDAAILFFANPSTFACGSQNDWPQPREADITVTDTLVPSRTLYLVKGVAYPIRIAYYNGSGDGKLNVSFKDPSGTTHTDWKGYVWQYSNTCSTCTYT : glycan array binding signal (z-score) was -0.314

Noted for Epa15 (Candida glabrata) (protein) MGSSHHHHHHSSGLVPRGSHMASDPTTFPLGCSPEFTKTKKGLSMELYRYDYLPPGSYPCWDSAYLNPSYPRTGYKAKKLIATVDGVSGDINFKFNPKFGCKAIPDYLPSNFNYHEPITITNFTMILYGYFMPKTTAFHTFYVTADDLLFMNFGAGNAFDCCRREETADKFGNYAAYSVWGKKSLKNELTVYLHTGVYYPIRLFYNNRDYIAQLDIRFKTEHSNAIITNFTDYFYSVDDSSLGCPGLI : its glycan array binding signal (z-score) reads 0.625

Just so you know, measured glycan array binding signal (z-score) for FedF (Escherichia coli), Q47212 (protein) MRLKYILIIPLLLISLSVFASTLQVDKSVSYDWINSSASSAQVTGTLLGTGKTNTTQMPALYTWQHQIYNVNFIPSSSGTLTCQAGTILVWKNGRETQYALECRVSIHHSSGSINESQWGQQSQVGFGTACGNKKCRFTGFEISLRIPPNAQTYPLSSGDLKGSFSLTNKEVNWSASIYVPAIAKSYRLDTSITLPDTVNLKQNQATPVYYTFSAPSVSNTITGIPNQNDMPSSNVKLTIGPIQSKTTALYVQPDATGSWYDLSKSITMTVVKSSMLNFKGINAKPGNVTLSVPIVFEIQ came out at -0.144

Item: CFEM-CGl (Candida glabrata), Q6FRS0 (protein) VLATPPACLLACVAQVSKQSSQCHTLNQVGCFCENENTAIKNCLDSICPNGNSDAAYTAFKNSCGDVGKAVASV | glycan array binding signal (z-score): 2.81

Origin of the recorded values: the supplement of paper PMC8728848
